A collection of compounds and their measured % of control (UGT2B4 catalytic activity at 2-fold IC50)
# System: UGT2B
# CONDITION SET: avian; compound at estimated 2-fold IC50
OBSERVATION TYPE: % of control (UGT2B4 catalytic activity at 2-fold IC50)

compound=CC(=O)O[C@H](CC=C(C)C)C1=CC(=O)c2c(O)ccc(O)c2C1=O result="84 % of control"
compound="COc1cc(C2Oc3ccc([C@H]4Oc5cc(O)cc(O)c5C(=O)[C@@H]4O)cc3OC2CO)ccc1O (stereo partly shown)" result="67 % of control"
compound="CCC(C)n1ncn(-c2ccc(N3CCN(c4ccc(OCC5COC(Cn6cncn6)(c6ccc(Cl)cc6Cl)O5)cc4)CC3)cc2)c1=O (stereo not shown)" result="94 % of control"
compound=CC[C@H]1OC(=O)[C@H](C)[C@@H](O[C@H]2C[C@@](C)(OC)[C@@H](O)[C@H](C)O2)[C@H](C)[C@@H](O[C@@H]2O[C@H](C)C[C@H](N(C)C)[C@H]2O)[C@](C)(OC)C[C@@H](C)C(=O)[C@H](C)[C@@H](O)[C@]1(C)O result="48 % of control"
compound=O=c1cc(-c2ccccc2)oc2cc(O)c(O)c(O)c12 result="44 % of control"
compound=Nc1ccc(S(=O)(=O)Nc2ccnn2-c2ccccc2)cc1 result="74 % of control"
compound="CC(C)=CCC[C@](C)(O[C@@H]1O[C@H](CO)[C@@H](O)[C@H](O)[C@H]1O)[C@H]1CC[C@]2(C)[C@@H]1[C@H](O)C[C@@H]1[C@@]3(C)CC[C@H](O)C(C)(C)[C@@H]3[C@@H](O)C[C@]12C [Ginsenoside F1]" result="99 % of control"
compound=C[C@@H]1CC[C@H]2C(C)(C)[C@H]3C[C@@]12CC[C@@]3(C)O result="91 % of control"
compound="O=c1cc(-c2ccccc2)oc2cc(O)ccc12 [7-Hydroxyflavone]" result="92 % of control"
compound=O=C(/C=C/C=C/c1ccc2c(c1)OCO2)N1CCCCC1 result="86 % of control"

====

A collection of compounds and their measured Catalytic activity at 2-fold IC50
# Test system: CYP3A
# PROTOCOL TEXT: CYP3A catalytic activity (erythromycin N-demethylation) in mouse liver microsomes
# CONDITION SET: mouse; compound at estimated 2-fold IC50 (5 µM where none reported)
OBSERVATION TYPE: Catalytic activity at 2-fold IC50 (nmol/mg/min)

compound=Nc1ccc(S(=O)(=O)Nc2ccnn2-c2ccccc2)cc1 observation_type="Catalytic activity at 2-fold IC50" output_unit=nmol/mg/min numeric_value=0.68
compound="C=C[C@@H]1C2=CCOC(=O)C2=CO[C@H]1O[C@@H]1O[C@H](CO)[C@@H](O)[C@H](O)[C@H]1O [Gentiopicroside]" observation_type="Catalytic activity at 2-fold IC50" output_unit=nmol/mg/min numeric_value=0.56
compound=O=C1c2ccccc2C(=O)c2c1ccc(O)c2O observation_type="Catalytic activity at 2-fold IC50" output_unit=nmol/mg/min numeric_value=0.57
compound=O=C1C[C@@H](c2ccc(O)cc2)Oc2cc(O)cc(O)c21 observation_type="Catalytic activity at 2-fold IC50" output_unit=nmol/mg/min numeric_value=1.09
compound=CC[C@H]1OC(=O)[C@H](C)[C@@H](O[C@H]2C[C@@](C)(OC)[C@@H](O)[C@H](C)O2)[C@H](C)[C@@H](O[C@@H]2O[C@H](C)C[C@H](N(C)C)[C@H]2O)[C@](C)(OC)C[C@@H](C)C(=O)[C@H](C)[C@@H](O)[C@]1(C)O observation_type="Catalytic activity at 2-fold IC50" output_unit=nmol/mg/min numeric_value=0.60
compound=CCc1oc2ccccc2c1C(=O)c1cc(Br)c(O)c(Br)c1 observation_type="Catalytic activity at 2-fold IC50" output_unit=nmol/mg/min numeric_value=0.57
compound=COc1ccc(/C=C/c2cc(O)cc(O)c2)cc1O observation_type="Catalytic activity at 2-fold IC50" output_unit=nmol/mg/min numeric_value=0.52

====

# System: UGT2B (heading: UGT2B4)
# PROTOCOL TEXT: p-nitrophenol glucuronidation activity in possum liver microsomes
# Format: biochemical, possum (Trichosurus vulpecula)
# CONDITION SET: possum (Trichosurus vulpecula), pH 7.4, compound at estimated IC50, read-out: % of control (UGT2B4 catalytic activity at IC50)
A collection of molecules and their measured activity at 30 min
OBSERVATION TYPE: activity at 30 min (%)

molecule=CC[C@H]1OC(=O)[C@H](C)[C@@H](O[C@H]2C[C@@](C)(OC)[C@@H](O)[C@H](C)O2)[C@H](C)[C@@H](O[C@@H]2O[C@H](C)C[C@H](N(C)C)[C@H]2O)[C@](C)(OC)C[C@@H](C)C(=O)[C@H](C)[C@@H](O)[C@]1(C)O study_system="UGT2B (heading: UGT2B4)" observation_type="activity at 30 min" numeric_value=108
molecule=O=C(/C=C/C=C/c1ccc2c(c1)OCO2)N1CCCCC1 study_system="UGT2B (heading: UGT2B4)" observation_type="activity at 30 min" numeric_value=103
molecule=OC(Cn1cncn1)(Cn1cncn1)c1ccc(F)cc1F study_system="UGT2B (heading: UGT2B4)" observation_type="activity at 30 min" numeric_value=93
molecule=O=c1cc(-c2ccccc2)oc2cc(O)c(O)c(O)c12 study_system="UGT2B (heading: UGT2B4)" observation_type="activity at 30 min" numeric_value=105
molecule="O=c1cc(-c2ccccc2)oc2cc(O)ccc12 [7-Hydroxyflavone]" study_system="UGT2B (heading: UGT2B4)" observation_type="activity at 30 min" numeric_value=100

====

# Tested on: CYP3A
# PROTOCOL TEXT: CYP3A catalytic activity (erythromycin N-demethylation) in possum liver microsomes
# CONDITION SET: possum liver microsomes; initial screen n=1; compounds without reported IC50 at 5 µM
Counter-ions that a name gives are not always drawn.
A collection of compounds and their measured Percent control catalytic activity at estimated 2-fold IC50
OBSERVATION TYPE: Percent control catalytic activity at estimated 2-fold IC50 (percent control)

compound=C[C@]12CC[C@H](O)CC1=CC[C@@H]1[C@@H]2CC[C@]2(C)C(n3cnc4ccccc43)=CC[C@@H]12 output_unit="percent control" numeric_value=80
compound=O=[N+]([O-])c1cn(C(c2ccccc2)(c2ccccc2)c2ccccc2)cn1 output_unit="percent control" numeric_value=145
compound="CC(C)(C)C(O)/C(=C\\c1ccc(Cl)cc1)n1cncn1 (stereo not drawn)" output_unit="percent control" numeric_value=84
compound="CCc1ccc(CCOc2ccc(CC3SC(=O)NC3=O)cc2)nc1 (stereo not drawn) [Pioglitazone HCl]" output_unit="percent control" numeric_value=87
compound=COc1cc2c(cc1OC)[C@@H](Cc1ccc(Oc3cc(C[C@@H]4c5cc(OC)c(OC)cc5CCN4C)ccc3O)cc1)N(C)CC2 output_unit="percent control" numeric_value=117
compound="C[C@@H]1O[C@@H](O[C@H]2[C@H](Oc3cc(O)c(C(=O)CCc4ccc(O)cc4)c(O)c3)O[C@H](CO)[C@@H](O)[C@@H]2O)[C@H](O)[C@H](O)[C@H]1O [Naringin Dihydrochalcone]" output_unit="percent control" numeric_value=87
compound=O=C(/C=C/C=C/c1ccc2c(c1)OCO2)N1CCCCC1 output_unit="percent control" numeric_value=121
compound="CC12CC3CC(C)(C1)CC(N)(C3)C2 [Memantine HCl]" output_unit="percent control" numeric_value=109
compound=C/C1=C/CC[C@H](C)C(=O)C[C@@H](C(C)C)C(=O)C1 output_unit="percent control" numeric_value=103
compound=Cc1ccc(-c2c(-c3nn(C)c4ncnc(N5CC[C@H](N6CCCCC6)C5)c34)cnn2C)cc1 output_unit="percent control" numeric_value=108
compound="O=c1cc(-c2ccccc2)oc2cc(O)ccc12 [7-Hydroxyflavone]" output_unit="percent control" numeric_value=78
compound=O=c1cc(-c2ccccc2)oc2cc(O)c(O)c(O)c12 output_unit="percent control" numeric_value=112
compound="CC(=O)O[C@H]1CC[C@@]2(C)C(=CC[C@@H]3[C@@H]2CC[C@]2(C)C(c4cccnc4)=CC[C@@H]32)C1 [Abiraterone Acetate]" output_unit="percent control" numeric_value=110
compound=CCc1oc2ccccc2c1C(=O)c1cc(Br)c(O)c(Br)c1 output_unit="percent control" numeric_value=78
compound=CC[C@H]1OC(=O)[C@H](C)[C@@H](O[C@H]2C[C@@](C)(OC)[C@@H](O)[C@H](C)O2)[C@H](C)[C@@H](O[C@@H]2O[C@H](C)C[C@H](N(C)C)[C@H]2O)[C@](C)(OC)C[C@@H](C)C(=O)[C@H](C)[C@@H](O)[C@]1(C)O output_unit="percent control" numeric_value=117

====

# Test system: CYP3A
# PROTOCOL TEXT: CYP3A catalytic activity (erythromycin N-demethylation) in pooled human liver microsomes
# CONDITION SET: human, pH 7.4, probe erythromycin, % of control (catalytic activity at IC50), compound at estimated IC50 (1 µM where none reported)
OBSERVATION TYPE: activity at 30 min

compound="CC[C@H]1OC(=O)[C@H](C)[C@@H](O[C@H]2C[C@@](C)(OC)[C@@H](O)[C@H](C)O2)[C@H](C)[C@@H](O[C@@H]2O[C@H](C)C[C@H](N(C)C)[C@H]2O)[C@](C)(OC)C[C@@H](C)C(=O)[C@H](C)[C@@H](O)[C@]1(C)O [Clarithromycin]" result=95%
compound="OC(Cn1cncn1)(Cn1cncn1)c1ccc(F)cc1F [Fluconazole]" result=91%
compound="COc1ccc(/C=C/c2cc(O)cc(O)c2)cc1O [Rhapontigenin]" result=106%
compound="C[C@]12CC[C@H](O)CC1=CC[C@@H]1[C@@H]2CC[C@]2(C)C(n3cnc4ccccc43)=CC[C@@H]12 [Galeterone]" result=99%
